The measurements presented in this section are drawn from patent US20230399314A1.

Protocol text: Pharmacokinetic test on mice
Type: in vivo, male ICR mice
Stated conditions: male, ICR, plasma; mouse, intravenous injection 3 mg/kg; read-out: AUC0-t
Result type: AUC(0-t) (ng·h/mL)
Note: unit ng·h/mL is implicit; provide only the numeric part.

- O=c1[nH]cc(-c2cc([C@H]3C[C@@H]3COC(F)(F)F)c(Cl)nn2)c(=O)[nH]1: 6950
- O=c1[nH]cc(-c2cc([C@H]3C[C@@H]3CC(F)F)c(Cl)nn2)c(=O)[nH]1: 5070
- O=c1[nH]cc(-c2cc([C@H]3C[C@@H]3C(F)(F)F)c(Cl)nn2)c(=O)[nH]1: 13800

With those in mind, consider the next compound.
Reported AUC(0-t) for Cc1nnc(-c2c[nH]c(=O)[nH]c2=O)cc1[C@H]1C[C@@H]1C(F)F [Reference compound 1, reference compound] was 585

----------
Protocol text: Pharmacokinetic test on mice
Type: in vivo, male ICR mice
Stated conditions: male, ICR, plasma; mouse, intravenous injection 3 mg/kg; read-out: AUC0-t
Result type: AUC(0-t) (ng·h/mL)
Note: unit ng·h/mL is implicit; provide only the numeric part.

- Cc1nnc(-c2c[nH]c(=O)[nH]c2=O)cc1[C@H]1C[C@@H]1C(C)C [Reference compound 3, reference compound]: 730
- O=c1[nH]cc(-c2cc([C@@H]3C[C@H]3C(F)(F)F)c(Cl)nn2)c(=O)[nH]1: 15200

With those in mind, consider the next compound.
Reported AUC(0-t) for O=c1[nH]cc(-c2cc([C@H]3C[C@@H]3C(F)F)c(Cl)nn2)c(=O)[nH]1 [Reference compound 2, reference compound] was 2360

----------
Protocol text: Plasma protein binding by equilibrium dialysis, canine plasma
Assay type: in vitro ADME
Stated conditions: dog, 37° C.
As shown below, each of these compounds has a reported fraction unbound at 5 h, 1 μM value.
Just the number, please, no unit after it.

Sample records with fraction unbound at 5 h, 1 μM:
• O=c1[nH]cc(-c2cc([C@H]3C[C@@H]3CF)c(Cl)nn2)c(=O)[nH]1 = 0.245
• O=c1[nH]cc(-c2cc([C@H]3C[C@@H]3C(F)F)c(Cl)nn2)c(=O)[nH]1 [Reference compound 2, reference compound] = 0.177

With those in mind, consider the next compound.
Reported fraction unbound at 5 h, 1 μM for Cc1nnc(-c2c[nH]c(=O)[nH]c2=O)cc1[C@H]1C[C@@H]1C(C)C [Reference compound 3, reference compound] was 0.126

----------
Protocol text: Pharmacokinetic test on dogs
Assay type: in vivo, male Beagle dogs
Stated conditions: male, Beagle, plasma, po; dog, orally intragastric 5 mg/kg
Result type: Tmax (min)
Note: unit min is implicit; provide only the numeric part.

* Cc1nnc(-c2c[nH]c(=O)[nH]c2=O)cc1[C@H]1C[C@@H]1C(C)C [Reference compound 3, reference compound] | 25.2
* O=c1[nH]cc(-c2cc([C@H]3C[C@@H]3COC(F)(F)F)c(Cl)nn2)c(=O)[nH]1 | 49.8
* O=c1[nH]cc(-c2cc([C@H]3C[C@@H]3CF)c(Cl)nn2)c(=O)[nH]1 | 70.2
* O=c1[nH]cc(-c2cc([C@@H]3C[C@H]3C(F)(F)F)c(Cl)nn2)c(=O)[nH]1 | 70.2

With those in mind, consider the next molecule.
Reported Tmax for O=c1[nH]cc(-c2cc([C@H]3C[C@@H]3C(F)F)c(Cl)nn2)c(=O)[nH]1 [Reference compound 2, reference compound] was 30

----------
Protocol text: Pharmacokinetic test on mice
Type: in vivo, male ICR mice
Stated conditions: male, ICR, plasma, po; mouse, orally intragastric 10 mg/kg; read-out: Tmax
Result type: Tmax

Sample records with Tmax:
- O=c1[nH]cc(-c2cc([C@@H]3C[C@H]3C(F)(F)F)c(Cl)nn2)c(=O)[nH]1 [Compound 4]: 180 min
- Cc1nnc(-c2c[nH]c(=O)[nH]c2=O)cc1[C@H]1C[C@@H]1C(C)C [Reference compound 3, reference compound]: 19.8 min
- Cc1nnc(-c2c[nH]c(=O)[nH]c2=O)cc1[C@H]1C[C@@H]1C(F)F [Reference compound 1, reference compound]: 15 min
- O=c1[nH]cc(-c2cc([C@H]3C[C@@H]3C(F)F)c(Cl)nn2)c(=O)[nH]1 [Reference compound 2, reference compound]: 25.2 min
- O=c1[nH]cc(-c2cc([C@H]3C[C@@H]3COC(F)(F)F)c(Cl)nn2)c(=O)[nH]1 [Compound 11]: 40.2 min
- O=c1[nH]cc(-c2cc([C@H]3C[C@@H]3CC(F)F)c(Cl)nn2)c(=O)[nH]1 [Compound 18]: 25.2 min

Reported Tmax for O=c1[nH]cc(-c2cc([C@H]3C[C@@H]3CF)c(Cl)nn2)c(=O)[nH]1 [Compound 1] was 25.2 min

Reported Tmax for O=c1[nH]cc(-c2cc([C@H]3C[C@@H]3C(F)(F)F)c(Cl)nn2)c(=O)[nH]1 [Compound 3] was 49.8 min

----------
Protocol text: Pharmacokinetic test on mice
Format: in vivo, male ICR mice
Stated conditions: male, ICR, plasma, po; mouse, orally intragastric 10 mg/kg; read-out: AUC0-t
Result type: AUC(0-t) (ng·h/mL)
Note: unit ng·h/mL is implicit; provide only the numeric part.

Sample records with AUC(0-t):
- O=c1[nH]cc(-c2cc([C@H]3C[C@@H]3C(F)F)c(Cl)nn2)c(=O)[nH]1 [Reference compound 2, reference compound]: 5380
- Cc1nnc(-c2c[nH]c(=O)[nH]c2=O)cc1[C@H]1C[C@@H]1C(F)F [Reference compound 1, reference compound]: 821

With those in mind, consider the next compound.
Reported AUC(0-t) for Cc1nnc(-c2c[nH]c(=O)[nH]c2=O)cc1[C@H]1C[C@@H]1C(C)C [Reference compound 3, reference compound] was 1270

----------
As shown below, each of these compounds has a reported half-life value.
Protocol text: Pharmacokinetic test on dogs
Type: in vivo, male Beagle dogs
Stated conditions: male, Beagle, plasma, po; dog, orally intragastric 5 mg/kg
Note: unit h is implicit; provide only the numeric part.

Sample records with half-life:
* O=c1[nH]cc(-c2cc([C@H]3C[C@@H]3C(F)F)c(Cl)nn2)c(=O)[nH]1 [Reference compound 2, reference compound] | 3.3
* Cc1nnc(-c2c[nH]c(=O)[nH]c2=O)cc1[C@H]1C[C@@H]1C(C)C [Reference compound 3, reference compound] | 0.93
* O=c1[nH]cc(-c2cc([C@H]3C[C@@H]3CF)c(Cl)nn2)c(=O)[nH]1 | 2.67

Reported half-life for O=c1[nH]cc(-c2cc([C@H]3C[C@@H]3COC(F)(F)F)c(Cl)nn2)c(=O)[nH]1 was 2.27

Reported half-life for O=c1[nH]cc(-c2cc([C@@H]3C[C@H]3C(F)(F)F)c(Cl)nn2)c(=O)[nH]1 was 4.13

----------
Tested on: CD73 bound to the surfaces of A375 cells (Homo sapiens (Human))
Sequence (P21589 27-574): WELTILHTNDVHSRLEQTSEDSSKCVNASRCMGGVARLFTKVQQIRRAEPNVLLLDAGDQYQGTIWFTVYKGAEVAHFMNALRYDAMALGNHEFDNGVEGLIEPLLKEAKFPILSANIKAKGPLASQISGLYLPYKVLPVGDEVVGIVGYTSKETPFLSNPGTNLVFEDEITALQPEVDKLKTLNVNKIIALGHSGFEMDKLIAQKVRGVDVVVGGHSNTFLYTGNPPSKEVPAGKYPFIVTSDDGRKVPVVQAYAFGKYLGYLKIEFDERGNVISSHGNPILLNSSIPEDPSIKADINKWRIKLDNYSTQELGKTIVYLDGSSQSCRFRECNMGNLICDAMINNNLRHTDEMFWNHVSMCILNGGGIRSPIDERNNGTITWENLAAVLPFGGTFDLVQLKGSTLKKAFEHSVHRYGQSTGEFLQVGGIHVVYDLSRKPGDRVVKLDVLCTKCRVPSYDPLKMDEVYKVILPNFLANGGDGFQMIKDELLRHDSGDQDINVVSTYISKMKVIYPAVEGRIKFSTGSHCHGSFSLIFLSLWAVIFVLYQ
Protocol text: Inhibitory activity to CD73 enzyme bound to the surfaces of human melanoma A375 cells
Stated conditions: AMP 200 μM, 16 h
Result type: pIC50
Recall that pIC50 is obtained by taking minus log10 of the concentration measured in molar.

Sample records with pIC50:
* O=c1[nH]cc(-c2cc([C@H]3C[C@@H]3CC(F)F)c(Cl)nn2)c(=O)[nH]1 | 7.75
* Cc1nnc(-c2c[nH]c(=O)[nH]c2=O)cc1[C@H]1C[C@@H]1C(F)(F)F | 7.26
* O=c1[nH]cc(-c2cc([C@H]3C[C@@H]3CF)c(Cl)nn2)c(=O)[nH]1 | 7.51
* O=c1[nH]cc(-c2cc([C@H]3C[C@@H]3C(F)F)c(Cl)nn2)c(=O)[nH]1 [Reference compound 2, reference compound] | 7.17
* O=c1[nH]cc(-c2cc([C@H]3C[C@@H]3CC(F)(F)F)c(Cl)nn2)c(=O)[nH]1 | 8.25

Reported pIC50 for O=c1[nH]cc(-c2cc([C@@H]3C[C@H]3C(F)(F)F)c(Cl)nn2)c(=O)[nH]1 was 6.87

Reported pIC50 for Cc1nnc(-c2c[nH]c(=O)[nH]c2=O)cc1[C@H]1C[C@@H]1C(F)F [Reference compound 1, reference compound] was 6.61

Reported pIC50 for O=c1[nH]cc(-c2cc([C@H]3C[C@@H]3C(F)(F)F)c(Cl)nn2)c(=O)[nH]1 was 7.57

----------
As shown below, each of these compounds has a reported half-life value.
Protocol text: Pharmacokinetic test on dogs
Assay type: in vivo, male Beagle dogs
Stated conditions: male, Beagle, plasma; dog, intravenous injection 1 mg/kg
Note: unit min is implicit; provide only the numeric part.

Sample records with half-life:
• O=c1[nH]cc(-c2cc([C@@H]3C[C@H]3C(F)(F)F)c(Cl)nn2)c(=O)[nH]1 = 218
• Cc1nnc(-c2c[nH]c(=O)[nH]c2=O)cc1[C@H]1C[C@@H]1C(C)C [Reference compound 3, reference compound] = 23.4

With those in mind, consider the next compound.
Reported half-life for O=c1[nH]cc(-c2cc([C@H]3C[C@@H]3CF)c(Cl)nn2)c(=O)[nH]1 was 56.4
